Each entry below carries its recorded viability at 50 µM.
assay: Cytotoxicity in mouse RAW264.7 cells assessed as cell survival at 50 uM; type: cell-based; details: read-out: Survival

>  <Molecule>
C/C=C(\C)C(=O)O[C@H]1C[C@@H](C)[C@]2(O)CC[C@](C)(/C=C3/OC(=O)C(CO)=C31)O2 (relative stereo)

>  <Output unit>
%

>  <viability at 50 µM>
32.2

$$$$
>  <Molecule>
CC(=O)OCC1=C2/C(=C\[C@@]3(C)CC[C@](O)(O3)[C@H](C)C[C@@H]2O)OC1=O

>  <Output unit>
%

>  <viability at 50 µM>
18

$$$$
>  <Molecule>
C=C(C)C(=O)O[C@H]1C[C@@H](C)[C@]2(OC)CC[C@](C)(/C=C3/OC(=O)C(COC(C)=O)=C31)O2

>  <Output unit>
%

>  <viability at 50 µM>
6.3

$$$$
>  <Molecule>
C/C=C(\C)C(=O)O[C@H]1C[C@@H](C)[C@]2(OC)CC[C@](C)(/C=C3/OC(=O)C(CO)=C31)O2

>  <Output unit>
%

>  <viability at 50 µM>
15.6

$$$$
>  <Molecule>
C[C@@H]1C[C@H](O)C2=C(CO)C(=O)O/C2=C/[C@@]2(C)CC[C@]1(O)O2

>  <Output unit>
%

>  <viability at 50 µM>
121

$$$$
>  <Molecule>
CO[C@]12CC[C@](C)(/C=C3/OC(=O)C(CO)=C3[C@@H](O)C[C@H]1C)O2

>  <Output unit>
%

>  <viability at 50 µM>
134

$$$$
>  <Molecule>
C/C=C(\C)C(=O)O[C@H]1C[C@@H](C)[C@]2(O)CC[C@](C)(/C=C3/OC(=O)C(COC(C)=O)=C31)O2

>  <Output unit>
%

>  <viability at 50 µM>
31.1

$$$$
>  <Molecule>
C/C=C(\C)C(=O)O[C@H]1C[C@@H](C)[C@]2(OC)CC[C@](C)(/C=C3/OC(=O)C(COC(C)=O)=C31)O2

>  <Output unit>
%

>  <viability at 50 µM>
5.4

$$$$
>  <Molecule>
C=C(C)C(=O)O[C@H]1C[C@@H](C)[C@]2(O)CC[C@](C)(/C=C3/OC(=O)C(COC(C)=O)=C31)O2

>  <Output unit>
%

>  <viability at 50 µM>
31.1

$$$$

---

system: HEK293; assay: Inhibition of TNFalpha-induced NF-kappaB activity expressed in human HEK 293 cells at 50 uM after 6 hrs by luciferase reporter gene assay; type: cell-based
Decision: inhibition compared against 90%; not below it gives 1.0, below it gives 0.0.

>  <Smiles notation>
C=C(C)C(=O)O[C@H]1C[C@@H](C)[C@]2(OC)CC[C@](C)(/C=C3/OC(=O)C(COC(C)=O)=C31)O2

>  <Classification>
1.0

$$$$
>  <Smiles notation>
C/C=C(\C)C(=O)O[C@H]1C[C@@H](C)[C@]2(OC)CC[C@](C)(/C=C3/OC(=O)C(COC(C)=O)=C31)O2

>  <Classification>
1.0

$$$$
>  <Smiles notation>
C/C=C(\C)C(=O)O[C@H]1C[C@@H](C)[C@]2(OC)CC[C@](C)(/C=C3/OC(=O)C(CO)=C31)O2

>  <Classification>
1.0

$$$$
>  <Smiles notation>
C[C@@H]1C[C@H](O)C2=C(CO)C(=O)O/C2=C/[C@@]2(C)CC[C@]1(O)O2

>  <Classification>
0.0

$$$$

Sourced from ChEMBL document CHEMBL2062500
